molecular target: Recombinant human JAK2 kinase domain protein (Residues 812-1132) (Homo sapiens, UniProt O60674); assay: JAK2 biochemical assay (LabChip mobility shift, Ki); details: Biochem JAK2 Ki
Sequence (O60674 812-1132): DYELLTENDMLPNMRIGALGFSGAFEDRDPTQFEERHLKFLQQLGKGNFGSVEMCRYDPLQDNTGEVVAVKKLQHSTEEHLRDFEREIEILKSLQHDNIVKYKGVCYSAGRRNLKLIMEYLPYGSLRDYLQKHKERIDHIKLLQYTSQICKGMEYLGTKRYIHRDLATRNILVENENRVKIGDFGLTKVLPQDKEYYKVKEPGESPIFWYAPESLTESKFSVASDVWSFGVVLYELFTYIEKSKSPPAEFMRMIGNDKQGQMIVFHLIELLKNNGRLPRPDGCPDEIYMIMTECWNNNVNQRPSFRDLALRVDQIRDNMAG
pKi: −log10 of the molar value.
Cut-off 9 on pKi, inclusive. At or above means rule met; below means rule not met.

Some solved entries appear below for comparison.
CN(C)C(=O)Cc1ccc(Oc2ccc(OC(F)F)c(-c3nn(C)cc3NC(=O)c3cnn4cccnc34)c2)cc1 : rule met
O=C(Nc1c[nH]nc1-c1cc(Oc2cccc(CNCCO)c2)ccc1OC(F)F)c1cnn2cccnc12 : rule met
Cn1cc(NC(=O)c2cnn3cccnc23)c(-c2cc(Oc3cc(F)cc(C4(O)CNC4)c3)ccc2OC(F)F)n1 : rule met

-- ask Hi, just wondering whether Cn1cc(NC(=O)c2cnn3cccnc23)c(-c2cc(Oc3ccc4c(c3)CN(CCO)CC4)ccc2OC(F)F)n1 shows pKi of 9 or higher.
-- reply rule met

* * *

molecular target: Recombinant human JAK2 kinase domain protein (Residues 812-1132) (Homo sapiens); experiment: JAK2 biochemical assay (LabChip mobility shift, Ki); settings: Biochem JAK2 Ki
Response field class: string, computed from recorded Ki by ranges band 1: < 200 pM; band 2: ≥ 200 pM and < 700 pM; band 3: ≥ 700 pM

CN1CC(O)(c2cc(Oc3ccc(OC(F)F)c(-c4nn(C)cc4NC(=O)c4cnn5cccnc45)c3)ccc2F)C1 [Example 104] : band 3
CN(C)CCN1CC(O)(Cn2cc(Oc3ccc(OC(F)F)c(-c4nn(C)cc4NC(=O)c4cnn5cccnc45)c3)cn2)C1 [Example 198] : band 3
CC(=O)c1cc(Oc2ccc(OC(F)F)c(-c3n[nH]cc3NC(=O)c3cnn4cccnc34)c2)ccc1C [Example 44] : band 2
Cn1cc(NC(=O)c2cnn3cccnc23)c(-c2cc(Oc3ccc(C4(CC#N)COC4)cc3)ccc2OC(F)F)n1 [Example 147] : band 2
Cn1cc(NC(=O)c2cnn3cccnc23)c(-c2cc(Oc3ccc(CN4CCC[C@H](CO)C4)cc3)ccc2OC(F)F)n1 (racemic) [Example 162] : band 3
Cn1cc(NC(=O)c2cnn3cccnc23)c(-c2cc(Oc3ccc(CC(=O)N4CCOCC4)cc3)ccc2OC(F)F)n1 [Example 156] : band 1
Cn1cc(Oc2ccc(OC(F)F)c(-c3nn(C)cc3NC(=O)c3cnn4cccnc34)c2)cn1 [Example 59] : band 1
CN1CC[C@@H](O)[C@H](n2cc(Oc3ccc(OC(F)F)c(-c4nn(C)cc4NC(=O)c4cnn5cccnc45)c3)cn2)C1 (stereo in doubt) [Example 185] : band 2
Cc1ccc(Oc2ccc(OC(F)F)c(-c3nn(C)cc3NC(=O)c3cnn4cccnc34)c2)cc1C(=O)N(C)C [Example 49] : band 2
CCn1cc(NC(=O)c2cnn3cccnc23)c(-c2cc(Oc3cccc(C4(O)CNC4)c3)ccc2OC(F)F)n1 [Example 112] : band 2

-- ask Sort into band: CN(C)C(=O)CNCc1cccc(Oc2ccc(OC(F)F)c(-c3nn(C)cc3NC(=O)c3cnn4cccnc34)c2)c1 [Example 55]
-- reply band 2

-- ask Category lookup for the molecule Cn1ccc(Oc2ccc(OC(F)F)c(-c3nn(C)cc3NC(=O)c3cnn4cccnc34)c2)n1 [Example 143]
-- reply band 2

* * *

Listing of recorded pKi by entry.
molecular target: recombinant human JAK1 kinase domain protein (Residues 854-1154) (Homo sapiens, UniProt P23458); construct: human JAK1 kinase domain protein (Residues 854-1154); test: JAK1 biochemical assay (LabChip mobility shift, Ki); settings: read-out: Biochem JAK1 Ki
Sequence (P23458 854-1154): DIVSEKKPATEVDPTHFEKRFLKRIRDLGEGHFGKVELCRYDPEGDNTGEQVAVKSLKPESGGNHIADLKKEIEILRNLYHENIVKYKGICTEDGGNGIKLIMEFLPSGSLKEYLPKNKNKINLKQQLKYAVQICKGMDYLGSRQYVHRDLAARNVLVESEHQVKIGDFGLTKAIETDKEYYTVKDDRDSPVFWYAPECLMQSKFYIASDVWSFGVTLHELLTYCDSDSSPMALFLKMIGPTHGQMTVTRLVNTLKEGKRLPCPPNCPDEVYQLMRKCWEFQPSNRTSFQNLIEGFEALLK
Scale for pKi: -log10 of concentration given in mol/L; no unit attached.

In the examples that follow, each entry is paired with its recorded pKi.
Cn1cc(NC(=O)c2cnn3cccnc23)c(-c2cc(Oc3cnn(C4CC(O)C4)c3)ccc2OC(F)F)n1 (stereo not shown) [Example 118] : 9.37
Cn1cc(NC(=O)c2cnn3cccnc23)c(-c2cc(Oc3ccc(C4(CC#N)CNC4)cc3)ccc2OC(F)F)n1 : 8.44
Cn1ccc(Oc2ccc(OC(F)F)c(-c3nn(C)cc3NC(=O)c3cnn4cccnc34)c2)n1 : 9.16
Cc1ccc(Oc2ccc(OC(F)F)c(-c3nn(CCN[C@H]4CCCOC4)cc3NC(=O)c3cnn4cccnc34)c2)cc1C(=O)N(C)C (racemic) : 8.77
Cn1cc(NC(=O)c2cnn3cccnc23)c(-c2cc(Oc3cccc(C(=O)N4CCC(N5CCOCC5)CC4)c3)ccc2OC(F)F)n1 : 9.33
CC(N)c1cccc(Oc2ccc(OC(F)F)c(-c3n[nH]cc3NC(=O)c3cnn4cccnc34)c2)c1 (stereo not shown) : 9.60

-- ask Give a short answer stating reported pKi for Cn1cc(NC(=O)c2cnn3cccnc23)c(-c2cc(Oc3cnn(CCN4CCOCC4)c3)ccc2OC(F)F)n1 .
-- reply 8.21

* * *

molecular target: recombinant human JAK1 kinase domain protein (Residues 854-1154) (Homo sapiens, UniProt P23458); construct: human JAK1 kinase domain protein (Residues 854-1154); test: JAK1 biochemical assay (LabChip mobility shift, Ki); settings: read-out: Biochem JAK1 Ki
pKi listing for selected compounds.
Please note pKi is a logarithmic value: minus log10 of concentration in mol/L. Answer with that number alone.

// solved cases for pKi follow
Cn1cc(NC(=O)c2cnn3cccnc23)c(-c2cc(Oc3cnn([C@H]4CNCC[C@@H]4O)c3)ccc2OC(F)F)n1 (stereo in doubt) : 9.54
Cn1cc(NC(=O)c2cnn3cccnc23)c(-c2cc(Oc3cccc(CN4CCOCC4)c3)ccc2OC(F)F)n1 : 8.82
Cn1cc(NC(=O)c2cnn3cccnc23)c(-c2cc(Oc3cccc(CN)n3)ccc2OC(F)F)n1 : 8.82
CN1CCCC(O)(Cn2cc(Oc3ccc(OC(F)F)c(-c4nn(C)cc4NC(=O)c4cnn5cccnc45)c3)cn2)C1 (centres unmarked) [Example 193] : 8.80

-- ask Using known records, supply pKi for Cn1cc(NC(=O)c2cnn3cccnc23)c(-c2cc(Oc3cccc([C@H]4CNCCO4)c3)ccc2OC(F)F)n1 (racemic)
-- reply 9.43

-- ask # return recorded pKi for input C[C@H](O)Cn1cc(Oc2ccc(OC(F)F)c(-c3nn(C)cc3NC(=O)c3cnn4cccnc34)c2)cn1 (racemic)
-- reply 9.46

-- ask For the compound CC(C)N1CCC(O)(Cn2cc(Oc3ccc(OC(F)F)c(-c4nn(C)cc4NC(=O)c4cnn5cccnc45)c3)cn2)CC1 , give its reported pKi.
-- reply 9.02

-- ask Supply reported pKi belonging to this compound: NCc1ccccc1Oc1ccc(OC(F)F)c(-c2n[nH]cc2NC(=O)c2cnn3cccnc23)c1
-- reply 8.82

-- ask Please report the measured pKi for Cn1cc(NC(=O)c2cnn3cccnc23)c(-c2cc(Oc3cnn(C4CNC4)c3)ccc2OC(F)F)n1
-- reply 8.82

-- ask Give recorded pKi. Cn1cc(NC(=O)c2cnn3cccnc23)c(-c2cc(Oc3cnn(CCO)c3)ccc2OC(F)F)n1
-- reply 9.52

-- ask Using the record for O=C(Nc1c[nH]nc1-c1cc(Oc2cn[nH]c2)ccc1OC(F)F)c1cnn2cccnc12 , state its measured pKi.
-- reply 9.89

-- ask Kindly indicate its recorded pKi. Item: O=C(Nc1cn(C2COC2)nc1-c1cc(Oc2ccc3c(c2)CNCC3)ccc1OC(F)F)c1cnn2cccnc12
-- reply 9.51

-- ask Supply recorded pKi for CN1CCC[C@H]1Cn1cc(NC(=O)c2cnn3cccnc23)c(-c2cc(Oc3cccc(CC#N)c3)ccc2OC(F)F)n1 (racemic) here.
-- reply 9.26

-- ask Identify pKi associated with the compound Cn1cc(NC(=O)c2cnn3cccnc23)c(-c2cc(Oc3cccc([C@@H]4COCCN4)c3)ccc2OC(F)F)n1 (stereo in doubt)
-- reply 9.17

-- ask Output measured pKi for this item: Cc1ccc(Oc2ccc(OC(F)F)c(-c3n[nH]cc3NC(=O)c3cnn4cccnc34)c2)cc1C(=O)N(C)C
-- reply 9.62

-- ask Given Cc1ccc(Oc2ccc(OC(F)F)c(-c3nn(CCN[C@H]4CCOC4)cc3NC(=O)c3cnn4cccnc34)c2)cc1C(=O)N(C)C (racemic) , respond with its pKi.
-- reply 8.92

* * *

Measured pKi of individual entries
biological target: recombinant human JAK1 kinase domain protein (Residues 854-1154) (Homo sapiens, UniProt P23458); construct: human JAK1 kinase domain protein (Residues 854-1154); test: JAK1 biochemical assay (LabChip mobility shift, Ki); details: read-out: Biochem JAK1 Ki
To interpret pKi, take it as minus log10 of a concentration measured in moles per litre.

Below, 3 molecules whose answers are already recorded.
Cn1cc(NC(=O)c2cnn3cccnc23)c(-c2cc(Oc3ccc4c(c3)CN(CCO)CC4)ccc2OC(F)F)n1 : 9.40
Cc1cc(Oc2ccc(OC(F)F)c(-c3nn(C)cc3NC(=O)c3cnn4cccnc34)c2)cc(C2(O)CN(C)C2)c1 : 9.36
CN1CC(n2cc(Oc3ccc(OC(F)F)c(-c4nn(C)cc4NC(=O)c4cnn5cccnc45)c3)cn2)C1 : 8.52

-- ask For the molecule CN(C)C(=O)c1cncc(Oc2ccc(OC(F)F)c(-c3nn(C)cc3NC(=O)c3cnn4cccnc34)c2)c1 , give its measured pKi value.
-- reply 9.27

-- ask Identify measured pKi corresponding to CNC(=O)c1cncc(Oc2ccc(OC(F)F)c(-c3nn(C)cc3NC(=O)c3cnn4cccnc34)c2)c1
-- reply 9.21

-- ask For the molecule CN1CCN(C(=O)Cc2ccc(Oc3ccc(OC(F)F)c(-c4nn(C)cc4NC(=O)c4cnn5cccnc45)c3)cc2)CC1 , give its reported pKi.
-- reply 9.21

-- ask Provide one value: measured pKi of Cn1cc(NC(=O)c2cnn3cccnc23)c(-c2cc(Oc3cccc([C@H]4COCCN4)c3)ccc2OC(F)F)n1 (stereo in doubt)
-- reply 9.02

-- ask Return pKi (reported value) for this molecule: Cc1ccc(Oc2ccc(OC(F)F)c(-c3n[nH]cc3NC(=O)c3cnn4cccnc34)c2)cc1CC(=O)N(C)C
-- reply 9.38

-- ask For the molecule CN1CC(O)C(n2cc(Oc3ccc(OC(F)F)c(-c4nn(C)cc4NC(=O)c4cnn5cccnc45)c3)cn2)C1 (stereo not shown) [Example 178] , give its reported pKi.
-- reply 9.54

-- ask Please supply the value of reported pKi for the item Cn1cc(NC(=O)c2cnn3cccnc23)c(-c2cc(Oc3cccc(CN4CCOC[C@@H]4CO)c3)ccc2OC(F)F)n1 (racemic)
-- reply 8.92

-- ask Kindly indicate its recorded pKi. Item: Cn1cc(NC(=O)c2cnn3cccnc23)c(-c2cc(Oc3cnn(CC4COC4)c3)ccc2OC(F)F)n1
-- reply 9.09

-- ask Specify pKi for Cn1cc(Oc2ccc(OC(F)F)c(-c3nn(CC(N)=O)cc3NC(=O)c3cnn4cccnc34)c2)cn1 and stop.
-- reply 8.80

-- ask Identify pKi associated with the molecule Cn1cc(NC(=O)c2cnn3cccnc23)c(-c2cc(Oc3cc(CNCCO)ccc3F)ccc2OC(F)F)n1
-- reply 9.49

-- ask Indicate its recorded pKi; the molecule in question is Cn1cc(NC(=O)c2cnn3cccnc23)c(-c2cc(Oc3cccc(C4CNCCO4)c3)ccc2OC(F)F)n1 (racemic) [Example 38]
-- reply 9.28

-- ask Identify measured pKi corresponding to CCN1CCC(O)(Cn2cc(Oc3ccc(OC(F)F)c(-c4nn(C)cc4NC(=O)c4cnn5cccnc45)c3)cn2)CC1
-- reply 9.08

-- ask // Input: CN(C)Cc1cncc(Oc2ccc(OC(F)F)c(-c3nn(C)cc3NC(=O)c3cnn4cccnc34)c2)c1 . Output its pKi only.
-- reply 8.96

-- ask Give the reported value of pKi for this record: O=C(Nc1c[nH]nc1-c1cc(Oc2cccc(CNCCO)c2)ccc1OC(F)F)c1cnn2cccnc12
-- reply 9.66
